# study system: T1, recombinant hIL-18Rα extracellular domain (human, UniProt Q13478 22-329, biotin label (selection) or fluorescent probe (single-clone FACS), sites not given)
# T1 construct: extracellular domain; also called hIL-18Rα ECD; hIL-18Rα-ECD
# T1 sequence (looked up): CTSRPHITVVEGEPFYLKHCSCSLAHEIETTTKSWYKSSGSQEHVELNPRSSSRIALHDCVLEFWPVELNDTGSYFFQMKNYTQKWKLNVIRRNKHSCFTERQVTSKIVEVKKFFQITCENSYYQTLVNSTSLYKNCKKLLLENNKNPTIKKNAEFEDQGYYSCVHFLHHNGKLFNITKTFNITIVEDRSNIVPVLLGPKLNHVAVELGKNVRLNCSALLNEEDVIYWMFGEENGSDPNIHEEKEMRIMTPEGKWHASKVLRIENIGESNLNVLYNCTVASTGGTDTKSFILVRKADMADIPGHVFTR
# run description: single-clone FACS, yeast display, 10 nM labelled hIL-18Rα ECD
# Protocol: Following the screens described in Example 2, single clone FACS analysis was performed to verify the binding of selected yeast cell surface-expressed IL-18 variant polypeptides from Round 4 and Round 5 to 10 nM hIL-18Rα-ECD. Briefly, each yeast clone at the same density was incubated with 10 nM IL-18Rα-ECD labeled by fluorescent probe, respectively, followed by washing step. Then the ratio of fluorescent positive IL-18Rα ECD binding yeasts in the population of each clone were analyzed.
Each record here notes measured % of fluorescence positive cells.

# binder, % of fluorescence positive cells / %
data = [
    ("IL-18 variant polypeptide M28 (ligand) YFPKLASKLSVIRNLNDQVLFIDQGNRPLFEDMTDSDCRDNAPRTIFIISMYKWSGGRGMAVTISVKCEKISTLSCENKIISFKEMNPPDVIKDTKSDIIFFQYSVPGHDNKMQFESSSYEGYFLACEKERDLFKLILKKEDELGDRSIMFTVQNED", 83.4),
    ("SEQ ID NO 87 (ligand) YFPKLGSKLSVIRNLNDQVLFIDQGNRPLFEDMTDSDCRDNAPRTIFIISMYKGSHFRGMAVTISVKCEKISTLSCENKIISFKEMNPPDGIKDTKSDIIFFQSSVPGHDNKMQFESSSYEGYFLACEKERDLFKLILKKEDELGDRSIMFTVQNED", 6.12),
    ("SEQ ID NO 10 (ligand) YFTKLKSKLSVIRNLNDQVLFIDQGNRPLFEDMTDSDCRDNAPRTIFIISMYKWSSDRGMAVTISVKCEKISTLSCENKIISFKEMNPPDAIKDTKSDIIFFQVSVPGHDNKMQFESSSYEGYFLACEKERDLFKLILKKEDELGDRSIMFTVQNED", 94.8),
    ("SEQ ID NO 61 (ligand) YFPKLKSKLSVIRNLNDQVLFIDQGNRPLFEDMTDSDCRDNAPRTIFIISMYKFSTERGMAVTISVKCEKISTLSCENKIISFKEMNPPDPIKDTKSDIIFFQRSVPGHDNKMQFESSSYEGYFLACEKERDLFKLILKKEDELGDRSIMFTVQNED", 76.1),
    ("IL-18 variant polypeptide M38 (ligand) YFPKLSSKLSVIRNLNDQVLFIDQGNRPLFEDMTDSDCRDNAPRTIFIISMYKWSGARGMAVTISVKCEKISTLSCENKIISFKEMNPPDVIKDTKSDIIFFQISVPGHDNKMQFESSSYEGYFLACEKERDLFKLILKKEDELGDRSIMFTVQNED", 79.5),
    ("SEQ ID NO 115 (ligand) YFPKLGSKLSVIRNLNDQVLFIDQGNRPLFEDMTDSDCRDNAPRTIFIISMYKISHDRGMAVTISVKCEKISTLSCENKIISFKEMNPPDTIKDTKSDIIFFQSSVPGHDNKMQFESSSYEGYFLACEKERDLFKLILKKEDELGDRSIMFTVQNED", 0.35),
    ("SEQ ID NO 24 (ligand) YFDKLGSKLSVIRNLNDQVLFIDQGNRPLFEDMTDSDCRDNAPRTIFIISMYKWSPWRGMAVTISVKCEKISTLSCENKIISFKEMNPPDNIKDTKSDIIFFQRSVPGHDNKMQFESSSYEGYFLACEKERDLFKLILKKEDELGDRSIMFTVQNED", 90.1),
    ("IL-18 variant polypeptide M33 (ligand) YFEKLHSKLSVIRNLNDQVLFIDQGNRPLFEDMTDSDCRDNAPRTIFIISMYKRSTHRGMAVTISVKCEKISTLSCENKIISFKEMNPPDNIKDTKSDIIFFQRSVPGHDNKMQFESSSYEGYFLACEKERDLFKLILKKEDELGDRSIMFTVQNED", 0.17),
    ("SEQ ID NO 118 (ligand) YFPKLASKLSVIRNLNDQVLFIDQGNRPLFEDMTDSDCRDNAPRTIFIISMYKWSNARGMAVTISVKCEKISTLSCENKIISFKEMNPPDSIKDTKSDIIFFQRSVPGHDNKMQFESSSYEGYFLACEKERDLFKLILKKEDELGDRSIMFTVQNED", 0.15),
    ("SEQ ID NO 84 (ligand) YFPKLKSKLSVIRNLNDQVLFIDQGNRPLFEDMTDSDCRDNAPRTIFIISMYKMSSARGMAVTISVKCEKISTLSCENKIISFKEMNPPDGIKDTKSDIIFFQSSVPGHDNKMQFESSSYEGYFLACEKERDLFKLILKKEDELGDRSIMFTVQNED", 11.5),
    ("IL-18 variant polypeptide M26 (ligand) YFPKLRSKLSVIRNLNDQVLFIDQGNRPLFEDMTDSDCRDNAPRTIFIISMYKHSDKRGMAVTISVKCEKISTLSCENKIISFKEMNPPDVIKDTKSDIIFFQYSVPGHDNKMQFESSSYEGYFLACEKERDLFKLILKKEDELGDRSIMFTVQNED", 96.7),
    ("SEQ ID NO 25 (ligand) YFPKLKSKLSVIRNLNDQVLFIDQGNRPLFEDMTDSDCRDNAPRTIFIISMYKLSGVRGMAVTISVKCEKISTLSCENKIISFKEMNPPDTIKDTKSDIIFFQRSVPGHDNKMQFESSSYEGYFLACEKERDLFKLILKKEDELGDRSIMFTVQNED", 90),
    ("SEQ ID NO 110 (ligand) YFPKLNSKLSVIRNLNDQVLFIDQGNRPLFEDMTDSDCRDNAPRTIFIISMYKLSPRRGMAVTISVKCEKISTLSCENKIISFKEMNPPDNIKDTKSDIIFFQRSVPGHDNKMQFESSSYEGYFLACEKERDLFKLILKKEDELGDRSIMFTVQNED", 0.71),
]
